Where do the numbers come from? From PubChem BioAssay AID686979.

Test: qHTS for Inhibitors of human tyrosyl-DNA phosphodiesterase 1 (TDP1): qHTS in cells in presence of CPT; also: nearly all actives have a fitted effect of over 55% in size
Details: chicken DT40 Tdp1-/-;hTDP1 cells + 20 nM CPT, ATP luminescence, 48 h; series mostly up to 46.2 µM
About 50,000 (12%) of roughly 420,000 compounds were called active. Another 26% or so got no clear call; they are omitted. Calls follow the shape of the dose curve; as a rule, active = well fitted inhibition curve with a large enough effect; inconclusive = small, poorly fitted or top-dose-only effect; inactive = flat fitted curve, though single readings scatter. For the sample, actives were picked, then their nearest neighbours and some compounds at random.
Outcomes: True (active), False (inactive)

Compound	Category
CCOC(=O)C1(S(=O)(=O)c2ccc(Cl)cc2)CCN(Cc2ccccc2)CC1	False
CCOC(=O)C1(CCOc2ccccc2)CCN(Cc2cc(OC)cc(OC)c2)CC1	True
O=C(O)c1cc(Cl)c(Cl)cc1C(=O)Nc1cccc2ncccc12	False
Cc1nccn1-c1ccc(NC(=O)[C@H]2O[C@@H](n3cnc4c(N)ncnc43)[C@H](O)[C@@H]2O)cc1	False
CCOC(=O)NC(=O)CSc1nnc(SCCC(=O)O)s1	False
CC(=O)c1c(OCC(=O)N(C)C2CCCCC2)ccc2c(C)cc(=O)oc12	False
Cc1ccc(S(=O)(=O)NCC(=O)N(CC(=O)NC(C)(C)C)Cc2cccs2)cc1	False
CCOC(=O)C1(Cc2cccc(OC)c2)CCN(C(C)CC(C)(C)O)CC1 (stereo not drawn)	False
O=C(Nc1cccnc1Cl)c1cc(-c2cccc(Cl)c2)on1	False
CCC(C(=O)OC)n1cnc2c(oc3ccccc32)c1=O (stereo not drawn)	False
CC(=O)Cc1nsc(NC(=O)c2ccc(Cl)cc2Cl)n1	False
Cc1ccc(C(=O)Nc2nc3ccc(Cl)cc3s2)o1	False
O=C(c1cn(CC2CCCN(Cc3cc4ccccc4s3)C2)nn1)N1CCCC1 (stereo not drawn)	False
Cc1ccc(C(O)P(=O)(OC(C)C)c2ccc(N(C)C)cc2)cc1 (stereo not drawn)	False
CCOC(=O)N1CCN(c2cc(C)c([N+](=O)[O-])cc2F)CC1	True
O=C1COc2c1ccc(O)c2O	False
CCOC(=O)C1(CCOc2ccccc2)CCN(C(=O)c2cncs2)CC1	False
CC1=CC=CC2=N/C(=N\S(=O)(=O)c3ccc(F)cc3F)c3ccccc3CN12	False
CCOC(=O)C1(CCOC)CCN(Cc2cc3ccccc3s2)CC1	True
O=C(CCc1ccccc1)Nc1ccnn1C1CCN(Cc2ccc(OCCO)cc2)CC1	False
Cc1csc(NC(=O)c2ccc(-c3ccc(Cl)cc3Cl)o2)n1	True
CCCCNC(=O)c1ccc2c(c1)NC(=O)C(C(C)C)N2 (stereo not drawn)	False
CCOC(=O)C1(CCOC)CCN(Cc2ccc(C(=O)OC)cc2)CC1	False

----------
Assay: qHTS for Inhibitors of human tyrosyl-DNA phosphodiesterase 1 (TDP1): qHTS in cells in presence of CPT; also: nearly all actives have a fitted effect of over 55% in size
Details: chicken DT40 Tdp1-/-;hTDP1 cells + 20 nM CPT, ATP luminescence, 48 h; series mostly up to 46.2 µM
The whole screen tested about 420,000 compounds, of which about 50,000 (12%) were called active. About 26% were inconclusive and are not listed. The call rests on the fitted dose curve; in most records, active means well fitted inhibition curve with a large enough effect; inconclusive means small, poorly fitted or top-dose-only effect; inactive means flat fitted curve, though single readings scatter. The sample as a whole holds a higher share of actives than the screen did.
Outcomes: active, inactive

Compound	Category
CCCCCCCCC(=O)NCCOc1ccccc1	inactive
Cc1ccc(S(=O)(=O)/N=C2\C=C(NS(=O)(=O)c3ccc(C)cc3)C(=O)c3ccccc32)cc1	active
CCOc1ccc(N/C=C/C(=O)c2ccccc2)cc1	inactive
COc1ccc(OC)c2[nH]c(=O)c(CCNC(=O)C(=O)c3c[nH]c4ccccc34)cc12	active
CCCCn1c(N)c(N(Cc2ccccc2OC)C(=O)COc2cc(C)ccc2Cl)c(=O)[nH]c1=O	inactive
CCOc1ccc2nc(Nc3nc4ccc(NC(C)=O)cc4s3)sc2c1	active
Cc1ccc(S(=O)(=O)N[C@H](CO)C(C)C)cc1	inactive
Cc1cc(C)cc(NC(=O)N(C)Cc2ccccc2)c1	inactive
CCCOc1ccc(N/C=C/C(=O)C(C)(C)C)cc1	inactive
COc1ccc(OC)c2[nH]c(=O)c(CCNC(=O)C(C)(C)C)cc12	inactive
Cc1nc2ccc(NC(=O)C3CCCCC3)cc2s1	inactive
CCOC(CNC(=O)C(=O)NCC(c1ccco1)N1CCN(c2ccc(OC)cc2)CC1)OCC (configuration not stated)	inactive
CCOc1ccc(N/C=C/C(=O)c2cc(OC)c(OC)c(OC)c2)cc1	active
Cc1cccc(NC(=O)Nc2ccc(OCc3ccccc3)cc2)n1	inactive
COc1ccc(N2CCN(C3=NS(=O)(=O)C(c4cccc(Br)c4)=C3C)CC2)cc1	inactive
CCOC(=O)C(C(=O)OCC)C(C#N)c1ccccc1 (configuration not stated)	inactive
C/C(=N\NC(=O)c1ccc(CSc2nc(C)cc(C)n2)cc1)C1CCCCC1	inactive
CCn1c(COc2cccc(OC)c2)nnc1SCC(=O)N1CCOCC1	inactive
CC(N)(C(=O)O)c1ccc(-c2nn[nH]n2)cc1 (configuration not stated)	inactive
CCOC(=O)/C=C/C(=O)OCC(=O)NC(c1ccccc1)c1ccccc1	active
COc1cc(C(=O)N/C(=C\c2cn(C)c3ccccc23)C(=O)N2CCOCC2)cc(OC)c1OC	inactive
CCOC(=O)N1CCC(N2Cc3cccc(C(=O)Nc4ccc(S(=O)(=O)N(CC)CC)cc4)c3C2=O)CC1	inactive
